Cited source: PubChem BioAssay (NCI)

# Test system: P388/ADR leukemia
# assayComment: NCI tumour cell line growth inhibition, 48 h
observable: TGI (nM)
Kindly provide the numeric value in nM only, without the unit symbol.

# compound, TGI (nM)
rows = [
    ("[CH3][Sn]([CH3])([CH3])[S]C(=S)N1CCOCC1", 902),
]

Consider the additional compound presented here.
The compound listed as CC1[C@@]2(CCC(C)(C)O2)O[C@@H]2C=C3C4CCC5Cc6nc7c(nc6C[C@@]5(C)C4C[C@H](O)[C@@]3(C)[C@]12O)CC1CCC2C3=C[C@H]4O[C@@]5(O[C@@](C)(CO)C[C@@H]5O)C(C)[C@@]4(O)[C@]3(C)[C@@H](O)CC2[C@]1(C)C7 (some centres undefined) has a reported TGI of 1160

====

# System: SK-MEL-5 melanoma
# assayComment: NCI tumour cell line growth inhibition, 48 h
Listed here are compounds together with their documented log10 of TGI.
// stored as log10 of TGI expressed in µM

Some compounds with known log10 of TGI results, for comparison:
# compound, log10 of TGI
records = [
    ("O=C(Nc1ccn(C2CC(O)C(COC(c3ccccc3)(c3ccccc3)c3ccccc3)O2)c(=O)n1)c1ccccc1 (stereo unspecified)", 0.67),
    ("Oc1c(Br)cc2c(c1Br)-c1c(c(O)c3c4c1=NCCC=4C=N3)NCC2", 1.37),
]

The compound listed as Cc1ccc(NCCNCC(C)(C)O)c2c(=O)c3ccc(Cl)cc3sc12 has a reported log10 of TGI of 0.47

The compound listed as O=C(/C=C/c1ccccc1)c1ccc(Cl)cc1Cl has a reported log10 of TGI of 1.50

====

# Test system: SK-MEL-2 melanoma
# assayComment: NCI tumour cell line growth inhibition, 48 h; in the data active means GI50 below about 0.43 µM; inactive means the rest
Bench note: report the call from 1 (active), -1 (inactive)

Answered examples (10):
# molecule, classAssignment
rows = [
    ("CC1[C@@]2(CCC(C)(C)O2)O[C@@H]2C=C3C4CCC5Cc6nc7c(nc6C[C@@]5(C)C4C[C@H](O)[C@@]3(C)[C@]12O)CC1CCC2C3=C[C@H]4O[C@@]5(O[C@@](C)(CO)C[C@@H]5O)C(C)[C@@]4(O)[C@]3(C)[C@@H](O)CC2[C@]1(C)C7 (some centres undefined)", 1),
    ("CCN(CC)CCOC(COc1cc(C)cc(C)c1)COc1cc(C)cc(C)c1", -1),
    ("C=CCC(N[C@@H](CO)c1ccccc1)c1ccc2ccccc2n1 (some centres undefined)", -1),
    ("[CH3][Sn]([CH3])([CH3])[S]C(=S)N1CCOCC1", -1),
    ("CCCN1C(=O)/C(=C/c2ccc(SC(F)(F)F)cc2)SC1=Nc1ccc(OC)cc1", -1),
    ("Cc1cc(NC(=O)NCc2ccc(N3C(N)=NC(N)=NC3(C)C)cc2)ccc1S(=O)(=O)F", -1),
    ("COc1cccc(C2CC(=O)Nc3c2c(C)nn3-c2nc3ccccc3[nH]2)c1OC (centres undefined)", -1),
    ("COc1cc2c(c(OC)c1OC)-c1cc(I)c(O)cc1[C@@H](NC(C)=O)CC2", -1),
    ("[O]=[Sn]([CH]1CCCCC1)[CH]1CCCCC1", 1),
    ("COc1cc(C2CC(c3ccccc3)=NN2C=O)ccc1Oc1ccnc2cc(Cl)ccc12 (centres undefined)", -1),
]

[in] Give the logged outcome of this assay for the following molecule: CC[C@H](C)[C@H](NC(=O)C12C3C4C1C1C2C3C41NC)C(=O)N(C)[C@H](C[C@@H](OC(C)=O)c1nc(C(=O)N[C@@H](Cc2ccccc2)C[C@H](C)C(=O)OC)cs1)C(C)C (some centres undefined)
[out] 1
